# System Name: Transthyretin (Homo sapiens, UniProt P02766, L75P)
# Method: Inhibition of TTR L55P mutant (unknown origin) expressed in Escherichia coli assessed as inhibition of amyloid fibril formation by fluorescence assay
Test Readout: EC50 (µM)
Form entry: value (µM) — number only.

Return reported EC50; argument: CC(Cc1ccc(O)c(O)c1)C(C)Cc1ccc(O)c(O)c1 (stereo unspecified) [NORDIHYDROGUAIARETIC ACID]
12.6

###

# System Name: Transthyretin (Homo sapiens, UniProt P02766, I104T)
# Method: Inhibition of TTR I84T mutant (unknown origin) expressed in Escherichia coli assessed as inhibition of amyloid fibril formation by fluorescence assay
Test Readout: pEC50
Would you please state pEC50, meaning minus log10 of the concentration in mol/L, as a bare number?

Suppose we examine the compound CC(Cc1ccc(O)c(O)c1)C(C)Cc1ccc(O)c(O)c1 (stereo unspecified) [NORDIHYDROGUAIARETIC ACID] ; what pEC50 value has been reported?
5.07

###

# Test system: Transthyretin (Homo sapiens), P02766 [V50M]
# Method: Inhibition of TTR V30M mutant (unknown origin) expressed in Escherichia coli assessed as inhibition of amyloid fibril formation at 20 uM by fluorescence assay
Task for the reader: assign each of the following molecules its reported inhibition.

Tell me the measured inhibition of O=C1OC[C@H](Cc2cccc(O)c2)[C@H]1Cc1cccc(O)c1 , please.
< 20%

Form field: reported inhibition of c1cc2c(cc1[C@H]1OC[C@H]3[C@@H]1CO[C@@H]3c1ccc3c(c1)OCO3)OCO2
< 20%

Entry CCOC(=O)/C=C/c1ccc(O)c(O)c1 [ETHYL CAFFEATE] : reported inhibition = ?
< 20%

Given the molecule O=C(/C=C/c1ccc(O)c(O)c1)OCCc1ccccc1 [CAFFEIC ACID PHENETHYL ESTER] , what is its reported inhibition?
< 20%

Endpoint output: inhibition of CCCCCCCCOC(=O)/C=C/c1ccc(O)c(O)c1 . Value?
47%

Value lookup for inhibition; key = COc1cc(/C=C/C(=O)OCCc2ccccc2)ccc1O
< 20%
